system under test: Protein deacetylase HDAC6 (Homo sapiens) (UniProt Q9UBN7)
Sequence (whole entry): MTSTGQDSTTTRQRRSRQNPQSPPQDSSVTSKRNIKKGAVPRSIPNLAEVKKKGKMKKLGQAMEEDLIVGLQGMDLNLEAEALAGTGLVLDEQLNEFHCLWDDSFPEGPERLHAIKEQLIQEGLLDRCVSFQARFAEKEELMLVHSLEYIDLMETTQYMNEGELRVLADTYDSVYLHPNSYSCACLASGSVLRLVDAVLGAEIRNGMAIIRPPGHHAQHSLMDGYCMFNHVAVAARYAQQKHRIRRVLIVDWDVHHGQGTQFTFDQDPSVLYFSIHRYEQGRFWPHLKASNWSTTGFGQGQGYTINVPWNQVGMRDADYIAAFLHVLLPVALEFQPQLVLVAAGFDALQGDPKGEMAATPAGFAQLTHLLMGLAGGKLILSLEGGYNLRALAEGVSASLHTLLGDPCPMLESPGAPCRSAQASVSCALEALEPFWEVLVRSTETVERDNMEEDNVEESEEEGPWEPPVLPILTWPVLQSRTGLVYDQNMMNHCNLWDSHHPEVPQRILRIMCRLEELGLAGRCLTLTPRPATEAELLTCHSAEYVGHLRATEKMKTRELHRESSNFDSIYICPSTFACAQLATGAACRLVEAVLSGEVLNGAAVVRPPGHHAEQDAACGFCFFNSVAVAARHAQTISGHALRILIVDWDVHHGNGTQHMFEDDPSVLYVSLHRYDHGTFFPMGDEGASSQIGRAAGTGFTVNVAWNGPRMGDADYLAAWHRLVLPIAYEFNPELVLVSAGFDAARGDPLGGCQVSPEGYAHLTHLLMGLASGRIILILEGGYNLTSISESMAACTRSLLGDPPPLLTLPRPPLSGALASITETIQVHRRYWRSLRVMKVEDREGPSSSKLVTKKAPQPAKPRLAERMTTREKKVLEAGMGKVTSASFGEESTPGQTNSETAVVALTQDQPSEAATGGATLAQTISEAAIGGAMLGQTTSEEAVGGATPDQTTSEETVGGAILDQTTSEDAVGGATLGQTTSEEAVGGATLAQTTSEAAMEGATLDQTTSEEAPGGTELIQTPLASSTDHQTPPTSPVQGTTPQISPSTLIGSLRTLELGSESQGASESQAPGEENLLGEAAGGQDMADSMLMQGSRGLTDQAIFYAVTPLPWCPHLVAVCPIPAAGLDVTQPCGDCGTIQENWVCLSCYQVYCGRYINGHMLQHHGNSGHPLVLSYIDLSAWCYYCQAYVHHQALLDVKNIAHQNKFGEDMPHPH
stated conditions: at 10 µM
measurement name: inhibition (%)
Kindly provide the numeric value in % only, without the unit symbol.

{"molecule": "Oc1ccc(/C=C/c2cc(O)cc(O)c2)cc1", "test value": 108}
{"molecule": "Cc1cc(O)c2c(=O)c3c(O)cc(O)c4c5c(O)cc(O)c6c(=O)c7c(O)cc(C)c8c1c2c(c34)c(c78)c65", "test value": 66.5}
{"molecule": "CN1[C@@H]2C[C@@H](O)C[C@H]1[C@@H]1O[C@@H]12", "test value": 67.9}
{"molecule": "N=C(NCCC[C@H](N)C(=O)O)N[N+](=O)[O-]", "test value": 0.71}
{"molecule": "O=C1OC2(c3cc(I)c(O)c(I)c3Oc3c2cc(I)c(O)c3I)c2c(Cl)c(Cl)c(Cl)c(Cl)c21", "test value": 68.7}

Value of inhibition reported for the molecule OCCOCCN1CCN(C(c2ccccc2)c2ccc(Cl)cc2)CC1 (configuration not stated) is -6.68

Value of inhibition reported for the molecule Cc1cccc(C#Cc2ccccc2)n1 is 108

###

system under test: Protein deacetylase HDAC6 (Homo sapiens)
Sequence (Q9UBN7 whole entry): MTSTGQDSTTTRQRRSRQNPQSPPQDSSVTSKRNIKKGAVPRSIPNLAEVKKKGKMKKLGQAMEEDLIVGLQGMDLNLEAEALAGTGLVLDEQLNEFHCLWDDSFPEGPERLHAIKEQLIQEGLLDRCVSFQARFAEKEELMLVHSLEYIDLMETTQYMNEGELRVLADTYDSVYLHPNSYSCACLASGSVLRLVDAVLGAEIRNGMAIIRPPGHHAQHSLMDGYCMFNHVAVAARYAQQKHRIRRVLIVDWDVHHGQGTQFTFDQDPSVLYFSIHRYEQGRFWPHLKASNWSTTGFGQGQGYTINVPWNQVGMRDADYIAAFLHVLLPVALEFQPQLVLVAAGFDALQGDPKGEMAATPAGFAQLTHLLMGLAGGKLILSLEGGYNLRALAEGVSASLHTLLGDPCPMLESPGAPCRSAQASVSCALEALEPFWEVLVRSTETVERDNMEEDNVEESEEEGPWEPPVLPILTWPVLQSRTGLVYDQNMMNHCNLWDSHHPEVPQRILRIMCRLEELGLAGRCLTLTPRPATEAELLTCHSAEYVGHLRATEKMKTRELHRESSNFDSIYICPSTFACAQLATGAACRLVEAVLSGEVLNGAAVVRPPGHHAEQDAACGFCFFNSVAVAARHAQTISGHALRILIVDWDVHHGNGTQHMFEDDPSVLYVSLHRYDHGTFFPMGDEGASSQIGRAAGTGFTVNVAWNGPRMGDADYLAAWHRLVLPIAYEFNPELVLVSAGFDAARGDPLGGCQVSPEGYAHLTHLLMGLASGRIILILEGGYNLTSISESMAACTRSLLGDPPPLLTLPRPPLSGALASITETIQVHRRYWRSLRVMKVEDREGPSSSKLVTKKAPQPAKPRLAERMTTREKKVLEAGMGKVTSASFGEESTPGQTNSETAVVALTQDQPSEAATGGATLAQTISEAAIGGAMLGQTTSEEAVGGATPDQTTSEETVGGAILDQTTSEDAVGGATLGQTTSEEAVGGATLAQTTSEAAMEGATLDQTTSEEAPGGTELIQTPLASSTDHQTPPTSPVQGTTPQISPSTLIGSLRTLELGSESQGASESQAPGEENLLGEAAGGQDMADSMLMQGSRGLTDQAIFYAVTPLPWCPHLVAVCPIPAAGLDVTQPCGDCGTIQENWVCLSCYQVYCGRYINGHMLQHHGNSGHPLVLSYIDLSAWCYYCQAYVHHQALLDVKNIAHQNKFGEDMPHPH
Each entry below lists one item and its recorded IC50 value.
Kindly provide the numeric value in nM only, without the unit symbol.

Illustrative cases are given below, each with its answer.
{"molecule": "O=C1Nc2cc(Br)ccc2/C1=C1/Nc2ccccc2/C1=N\\O [6BIO]", "unit abbreviation": "nM", "IC50": 698}
{"molecule": "COc1ccc(-c2cc(=O)c3c(O)c(OC)c(O)cc3o2)cc1OC [EUPATILIN]", "unit abbreviation": "nM", "IC50": 1320}
{"molecule": "CC(C)(C)c1ccc(-c2nc3ccccc3[nH]2)cc1", "unit abbreviation": "nM", "IC50": 296}
{"molecule": "Cc1nc(-c2ccc(OCC(C)C)c(C#N)c2)sc1C(=O)O [FEBUXOSTAT]", "unit abbreviation": "nM", "IC50": 55.4}
{"molecule": "O=C(/C=C/c1ccc(O)c(O)c1)c1ccc(O)cc1O [BUTEIN]", "unit abbreviation": "nM", "IC50": 2150}

Attention now shifts to the item below.
Value of IC50 reported for the molecule O=c1c2ccccc2nc2n1CCCCC2 is 1920

###

Target or system Protein deacetylase HDAC6 (Homo sapiens, UniProt Q9UBN7): recorded pIC50 listed per item.
The read-out pIC50 is expressed as -log10 of concentration in moles per litre.

Illustrative cases are given below, each with its answer.
{"smiles notation": "O=c1c(O)c(-c2ccc(O)c(O)c2)oc2cc(O)ccc12", "pIC50": 5.64}
{"smiles notation": "CCN(CC)c1ccc(C(=C2C=CC(=[N+](CC)CC)C=C2)c2ccccc2)cc1", "pIC50": 5.89}
{"smiles notation": "Cc1nc2cc(-n3ncc(C(=O)c4cc5ccccc5[nH]4)c3N)ccc2[nH]1", "pIC50": 7.08}

Attention now shifts to the item below.
Assay Protein deacetylase HDAC6 (Homo sapiens, UniProt Q9UBN7), sample O=c1c(O)c(-c2ccc(O)cc2O)oc2cc(O)cc(O)c12 , pIC50 read: 5.79

###

system under test: Protein deacetylase HDAC6 (Homo sapiens) (UniProt Q9UBN7)
stated conditions: at 10 µM
Each entry below lists one item and its recorded inhibition value.
Kindly provide the numeric value in % only, without the unit symbol.

{"molecule": "O=C1Nc2cc(Br)ccc2/C1=C1/Nc2ccccc2/C1=N\\O", "test value": 89.8}
{"molecule": "O=C(CC1CC(c2ccc(F)cc2F)=NO1)N1CCOCC1 (racemic)", "test value": 91.7}

Attention now shifts to the item below.
Assay Protein deacetylase HDAC6 (Homo sapiens) (UniProt Q9UBN7), sample O=C(O)c1ccc2nc(-c3cc(Cl)cc(Cl)c3)oc2c1 , inhibition read: 88.2

###

system under test: Protein deacetylase HDAC6 (Homo sapiens) (UniProt Q9UBN7)
stated conditions: at 10 µM
measurement name: inhibition (%)
Kindly provide the numeric value in % only, without the unit symbol.

Illustrative cases are given below, each with its answer.
{"compound": "O=C1C(Cl)=C(N2CCOCC2)C(=O)N1c1ccc(Cl)c(Cl)c1", "unit abbreviation": "%", "inhibition": 83.8}
{"compound": "CC(=O)Oc1ccccc1C(=O)Nc1ccccc1", "unit abbreviation": "%", "inhibition": 61.5}
{"compound": "C=CC(C)(C)c1cc(/C=C/C(=O)c2ccc(O)cc2)c(OC)cc1O", "unit abbreviation": "%", "inhibition": 52.1}
{"compound": "NC(=O)c1sc(-c2ccsc2)cc1N", "unit abbreviation": "%", "inhibition": 76.9}
{"compound": "CC(C)[C@H](C(=O)Nc1ccc(C(=O)NO)cc1)c1ccccc1", "unit abbreviation": "%", "inhibition": 101}
{"compound": "O=C(N/N=C/c1ccccc1O)c1ccccc1O", "unit abbreviation": "%", "inhibition": 107}

Assay Protein deacetylase HDAC6 (Homo sapiens) (UniProt Q9UBN7), sample O=C(NCc1ccc2c(c1)OCO2)c1c(Cl)cccc1Cl , inhibition read: 17.4

Assay Protein deacetylase HDAC6 (Homo sapiens) (UniProt Q9UBN7), sample O=c1cc(-c2ccccc2)oc2cc(O)c(O)c(O)c12 , inhibition read: 96.2

Assay Protein deacetylase HDAC6 (Homo sapiens) (UniProt Q9UBN7), sample CCOc1cc(/C=C2/C(=O)N(c3ccccc3)N=C2C)cc(Cl)c1OCC(=O)OC , inhibition read: 16.6

Assay Protein deacetylase HDAC6 (Homo sapiens) (UniProt Q9UBN7), sample COc1cc(/C=C/c2ccc(OC)cc2OC)cc(OC)c1 , inhibition read: 97.4

Assay Protein deacetylase HDAC6 (Homo sapiens) (UniProt Q9UBN7), sample CN(C)CC/C=C1\c2ccccc2Sc2ccc(Cl)cc21 , inhibition read: 94.5

Assay Protein deacetylase HDAC6 (Homo sapiens) (UniProt Q9UBN7), sample COc1cc(NS(C)(=O)=O)ccc1Nc1c2ccccc2nc2ccccc12 , inhibition read: 96.6

Assay Protein deacetylase HDAC6 (Homo sapiens) (UniProt Q9UBN7), sample COc1cc(OC)cc(-c2ccc3c(-c4ccc(F)cc4)n[nH]c3n2)c1 , inhibition read: 47.1
